Sourced from patent US8063096B2

Tested on: Avena fatua
Experiment: Pre-emergence test, Avena fatua
Assay type: in vivo
Conditions: pre-emergence/greenhouse; 250 g of ai/ha; after three weeks
Recorded endpoint: % damage, Avena fatua (%)
Give the quantity in %, number only.

Exam item: Report % damage, Avena fatua for CCc1cc(Cl)cc(CC)c1C1(Cl)C(=O)NC2(CCC(OC)CC2)C1=O (stereo not drawn)
Marked response: 100

Exam item: Report % damage, Avena fatua for COC1CCC2(CC1)NC(=O)C(Cl)(c1c(Cl)cc(C)cc1Cl)C2=O (stereo not drawn)
Marked response: 95

Exam item: Report % damage, Avena fatua for COC1CCC2(CC1)NC(=O)C(Cl)(c1c(C)cc(C)cc1Cl)C2=O (stereo not drawn)
Marked response: 100

Exam item: Report % damage, Avena fatua for CCc1cc(Br)cc(Cl)c1C1(Cl)C(=O)NC2(CCC(OC)CC2)C1=O (stereo not drawn)
Marked response: 100

Exam item: Report % damage, Avena fatua for CCc1cc(Cl)cc(Cl)c1C1(Cl)C(=O)NC2(CCC(OC)CC2)C1=O (stereo not drawn)
Marked response: 100

Exam item: Report % damage, Avena fatua for COC1CCC2(CC1)NC(=O)C(Cl)(c1c(C)cc(Br)cc1C)C2=O (stereo not drawn)
Marked response: 80

Exam item: Report % damage, Avena fatua for COC1CCC2(CC1)NC(=O)C(Cl)(c1c(C)cc(Br)cc1Cl)C2=O (stereo not drawn)
Marked response: 90

Exam item: Report % damage, Avena fatua for CCOC1CCC2(CC1)NC(=O)C(Cl)(c1c(C)cc(C)cc1C)C2=O (stereo not drawn)
Marked response: 90

Exam item: Report % damage, Avena fatua for CCc1cc(Br)cc(C)c1C1(Cl)C(=O)NC2(CCCOC2)C1=O (stereo not drawn)
Marked response: 100

* * *

Experiment: log P determination
Assay type: physicochemical
Details: pH 2.3, pH 2.3; read-out: logP (2.3)
I'd be grateful if you could share measured logP for these entries.
Answer using only a numeral; do not append any unit.

Exam item: Report logP for COC1CCC2(CC1)OC(=O)C(c1cc(C)c(C)cc1C)([N+](=O)[O-])C2=O (centres unmarked)
Marked response: 4.17

Exam item: Report logP for COC1CCC2(CC1)OC(=O)C(Cl)(c1cc(C)c(C)cc1C)C2=O (centres unmarked)
Marked response: 4.07

* * *

I'd be grateful if you could share measured Kill rate in % after 7d for these entries.
System: Myzus persicae
Assay: Test for persistency: Myzus persicae (root-systemic action)
Type: in vivo
Settings: 4 ppm in soil; broad beans; infection after 7 d
Give the quantity in %, number only.

Exam item: Report Kill rate in % after 7d for Cc1cc(Br)cc(C)c1C1(Cl)C(=O)NC2(CCOCC2)C1=O (stereo not shown)
Marked response: 99

Exam item: Report Kill rate in % after 7d for Cc1cc(Br)cc(Cl)c1C1(Cl)C(=O)NC2(CCOCC2)C1=O (stereo not shown)
Marked response: 100

Exam item: Report Kill rate in % after 7d for Cc1cc(Cl)cc(Cl)c1C1(Cl)C(=O)NC2(CCOC(C)C2)C1=O (stereo not shown)
Marked response: 100

Exam item: Report Kill rate in % after 7d for COC1CCC2(CC1)OC(=O)C(Cl)(c1cc(C)c(C)cc1C)C2=O (stereo not shown)
Marked response: 100

* * *

Test system: Meloidogyne incognita
Experiment: Meloidogyne test (gall formation on lettuce roots)
Assay type: in vivo
Conditions: 20 ppm active compound, nematicidal action by gall formation
Recorded endpoint: Kill rate in % after 14d (%)
Give the quantity in %, number only.

Exam item: Report Kill rate in % after 14d for CCc1cc(Cl)cc(CC)c1C1(Cl)C(=O)NC2(CCC(OC)CC2)C1=O (centres unmarked)
Marked response: 95

Exam item: Report Kill rate in % after 14d for COC1CCC2(CC1)NC(=O)C(Cl)(c1cc(C)ccc1C)C2=O (centres unmarked)
Marked response: 90

Exam item: Report Kill rate in % after 14d for COC1CCC2(CC1)NC(=O)C(Cl)(c1c(Cl)cc(Cl)c(C)c1Cl)C2=O (centres unmarked)
Marked response: 100

Exam item: Report Kill rate in % after 14d for COC1CCC2(CC1)NC(=O)C(Cl)(c1c(Cl)ccc(C)c1Cl)C2=O (centres unmarked)
Marked response: 98

Exam item: Report Kill rate in % after 14d for COC1CCC2(CC1)NC(=O)C(Cl)(c1c(Cl)cc(Cl)cc1Cl)C2=O (centres unmarked)
Marked response: 90

* * *

Test system: Amaranthus
Test: Pre-emergence test, Amaranthus
Format: in vivo
Settings: pre-emergence/greenhouse; 250 g of ai/ha; after three weeks
I'd be grateful if you could share measured % damage, Amaranthus for these entries.
Returns: string containing the numeric result and its unit.

Exam item: Report % damage, Amaranthus for COC1CCC2(CC1)NC(=O)C(Cl)(c1c(C)cc(C)cc1Cl)C2=O (stereo not shown)
Marked response: 100%

Exam item: Report % damage, Amaranthus for COC1CCC2(CC1)NC(=O)C(Cl)(c1c(Cl)cc(C)cc1Cl)C2=O (stereo not shown)
Marked response: 100%

Exam item: Report % damage, Amaranthus for CCOC1CCC2(CC1)NC(=O)C(Cl)(c1c(C)cc(C)cc1C)C2=O (stereo not shown)
Marked response: 100%

Exam item: Report % damage, Amaranthus for COC1CCC2(CC1)NC(=O)C(Cl)(c1c(C)cc(Br)cc1Cl)C2=O (stereo not shown)
Marked response: 80%

* * *

Assay: log P determination
Format: physicochemical
Conditions: pH 2.3, isomer mixture, two values; read-out: log P
Recorded endpoint: logP
Answer using only a numeral; do not append any unit.

Exam item: Report logP for COC1CCC2(CC1)OC(=O)C(c1cc(C)c(C)cc1C)([N+](=O)[O-])C2=O (stereo not shown) [I-2-a-2]
Marked response: 4.17

* * *

Assay: log P determination
Assay type: physicochemical
Settings: pH 2.3, pH 2.3; read-out: log P (pH 2.3)
Recorded endpoint: logP
Answer using only a numeral; do not append any unit.

Exam item: Report logP for COC1CCC2(CC1)OC(=O)C(Cl)(c1cc(C)c(C)cc1C)C2=O (stereo not shown) [Ex. I-2-a-1]
Marked response: 4.07
